target under test: T1, human α4β7 integrin (human, UniProt P13612 34-1032; P26010 20-798)
T1 construct: whole, on cells; assays run with Mn++; also called α4β7 on HUT 78 cells; α4β7 on RPMI 8866 cells
assay overview: inhibition of RPMI 8866 cell adhesion to huMAdCAM-1-Ig
Ends that are not written are not given here. R1 = not defined here
reported endpoint: pIC50
# reply with the number alone; pIC50 is -log10 of concentration in mol/L

Reported pIC50 of R1-LDTSL (reading uncertain; also: printed as R1-Leu-Asp-Thr-Ser-Leu, not tied) [R1-Leu-Asp-Thr-Ser-Leu, L# 1276 (Table 4)] : 5.57

Data credit: patent US20020103111A1
